Values were extracted from patent US20100113276A1.

Assay: log P by HPLC on reversed-phase column (C18), EEC Directive 79/831 Annex V.A8
Assay type: physicochemical
Conditions: C18, 40° C., 0.1% aqueous phosphoric acid / acetonitrile
measurement.name: log p H3PO4
Please reply with the value in numeric form only.

Solved entries (count: 4):
> print(dat)
                                smiles.code  measurement.name  reported.value
1      Clc1cc(Oc2ccccc2)c(Cl)cc1N=CN1CCCCC1       log p H3PO4            2.03
2  FC(F)(F)c1cc(Oc2cc(Cl)c(N=CN3CCCCC3)cc2Cl)ccc1Cl       log p H3PO4            2.85
3  CCN(C)C=Nc1cc(C(F)(F)F)c(Oc2ccc(Cl)c(C(F)(F)F)c2)cc1Cl       log p H3PO4            2.87
4  Cc1cc(N=CN(C)C)c(Cl)cc1Oc1ccc(Cl)c(C(C)(C)C)c1       log p H3PO4            1.57

Input: Entry `CCN(C)C=Nc1cc(F)c(-c2ccc(Cl)cc2)cc1C` needs its log p H3PO4 filled in; supply it.
Output: 2.13

Input: Entry `CCN(C)C=Nc1cc(Cl)c(Oc2cccc(C(C)(C)C)c2)cc1Cl` needs its log p H3PO4 filled in; supply it.
Output: 2.74

Input: Entry `CN(C)C=Nc1cc(Cl)c(Oc2ccc(Cl)c(C(F)(F)F)c2)cc1Cl` needs its log p H3PO4 filled in; supply it.
Output: 2.35

Input: Entry `CC(C)N(C)C=Nc1cc(Cl)c(Oc2ccc(Cl)c(C(F)(F)F)c2)cc1Cl` needs its log p H3PO4 filled in; supply it.
Output: 2.74

Input: Entry `CC(C)N(C)C=Nc1cc(Cl)c(Oc2ccccc2)cc1Cl` needs its log p H3PO4 filled in; supply it.
Output: 2

Input: Entry `CC(C)(C)c1cc(Oc2cc(Cl)c(N=CN3CCCCC3)cc2Cl)ccc1Cl` needs its log p H3PO4 filled in; supply it.
Output: 3.45

Input: Entry `CCN(C)C=Nc1cc(C(F)(F)F)c(Oc2ccc(Cl)c(C(C)(C)C)c2)cc1Cl` needs its log p H3PO4 filled in; supply it.
Output: 3.35
